Target: recombinant human wild type Cyp18 (Cyp18 wt) (Homo sapiens, UniProt P62937)
Sequence (P62937 whole entry): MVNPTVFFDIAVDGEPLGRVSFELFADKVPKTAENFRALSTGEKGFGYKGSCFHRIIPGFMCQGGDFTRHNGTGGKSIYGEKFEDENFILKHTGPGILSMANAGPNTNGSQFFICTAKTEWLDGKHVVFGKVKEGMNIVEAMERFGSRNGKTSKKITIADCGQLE
Assay: biochemical
pIC50: −log10 of the molar value.
Listed here are compounds together with their documented pIC50.

Smiles Data | pIC50
CC[C@@H]1NC(=O)[C@H]([C@H](O)[C@H](C)Cc2nc3cc(C(=O)N[C@@H](CO)C(=O)N[C@@H](CCC(=O)O)C(N)=O)ccc3[nH]2)N(C)C(=O)[C@H](C(C)C)N(C)C(=O)[C@H](CC(C)C)N(C)C(=O)[C@H](CC(C)C)N(C)C(=O)[C@@H](C)NC(=O)[C@H](C)NC(=O)[C@H](CC(C)C)N(C)C(=O)[C@H](C(C)C)NC(=O)[C@H](CC(C)C)N(C)C(=O)CN(C)C1=O | 8.36
CC[C@@H]1NC(=O)[C@H]([C@H](O)[C@H](C)Cc2nc3cc(C(=O)NCCOCCOCCNC(=O)CCC(=O)O)ccc3[nH]2)N(C)C(=O)[C@H](C(C)C)N(C)C(=O)[C@H](CC(C)C)N(C)C(=O)[C@H](CC(C)C)N(C)C(=O)[C@@H](C)NC(=O)[C@H](C)NC(=O)[C@H](CC(C)C)N(C)C(=O)[C@H](C(C)C)NC(=O)[C@H](CC(C)C)N(C)C(=O)CN(C)C1=O | 8.07
CC[C@@H]1NC(=O)[C@H]([C@H](O)[C@H](C)CC2=N[C@@H]3CS[C@H](CCCCC(=O)O)[C@@H]3N2)N(C)C(=O)[C@H](C(C)C)N(C)C(=O)[C@H](CC(C)C)N(C)C(=O)[C@H](CC(C)C)N(C)C(=O)[C@@H](C)NC(=O)[C@H](C)NC(=O)[C@H](CC(C)C)N(C)C(=O)[C@H](C(C)C)NC(=O)[C@H](CC(C)C)N(C)C(=O)CN(C)C1=O | 6.58
CC[C@@H]1NC(=O)[C@H]([C@H](O)[C@H](C)Cc2nc3cc(N4CCN(C)CC4)ccc3[nH]2)N(C)C(=O)[C@H](C(C)C)N(C)C(=O)[C@H](CC(C)C)N(C)C(=O)[C@H](CC(C)C)N(C)C(=O)[C@@H](C)NC(=O)[C@H](C)NC(=O)[C@H](CC(C)C)N(C)C(=O)[C@H](C(C)C)NC(=O)[C@H](CC(C)C)N(C)C(=O)CN(C)C1=O | 8.52
CC[C@@H]1NC(=O)[C@H]([C@H](O)[C@H](C)Cc2nc3cccc(C(=O)O)c3n2C)N(C)C(=O)[C@H](C(C)C)N(C)C(=O)[C@H](CC(C)C)N(C)C(=O)[C@H](CC(C)C)N(C)C(=O)[C@@H](C)NC(=O)[C@H](C)NC(=O)[C@H](CC(C)C)N(C)C(=O)[C@H](C(C)C)NC(=O)[C@H](CC(C)C)N(C)C(=O)CN(C)C1=O | 6.68
CC[C@@H]1NC(=O)[C@H]([C@H](O)[C@H](C)Cc2nc3cc(C(=N)N)ccc3[nH]2)N(C)C(=O)[C@H](C(C)C)N(C)C(=O)[C@H](CC(C)C)N(C)C(=O)[C@H](CC(C)C)N(C)C(=O)[C@@H](C)NC(=O)[C@H](C)NC(=O)[C@H](CC(C)C)N(C)C(=O)[C@H](C(C)C)NC(=O)[C@H](CC(C)C)N(C)C(=O)CN(C)C1=O | 7.92

====

Listed here are compounds together with their documented pIC50.
Target: recombinant human wild type Cyp18 (Cyp18 wt) (Homo sapiens)
Assay: biochemical
pIC50: −log10 of the molar value.

Compound | pIC50
CC[C@@H]1NC(=O)[C@H]([C@H](O)[C@H](C)Cc2nc3cc(C(=O)NN)ccc3[nH]2)N(C)C(=O)[C@H](C(C)C)N(C)C(=O)[C@H](CC(C)C)N(C)C(=O)[C@H](CC(C)C)N(C)C(=O)[C@@H](C)NC(=O)[C@H](C)NC(=O)[C@H](CC(C)C)N(C)C(=O)[C@H](C(C)C)NC(=O)[C@H](CC(C)C)N(C)C(=O)CN(C)C1=O [Compound 19] | 8.27
CC[C@@H]1NC(=O)[C@H]([C@H](O)[C@H](C)Cc2nc3cc(/C=C/C(=O)OC(C)(C)C)ccc3[nH]2)N(C)C(=O)[C@H](C(C)C)N(C)C(=O)[C@H](CC(C)C)N(C)C(=O)[C@H](CC(C)C)N(C)C(=O)[C@@H](C)NC(=O)[C@H](C)NC(=O)[C@H](CC(C)C)N(C)C(=O)[C@H](C(C)C)NC(=O)[C@H](CC(C)C)N(C)C(=O)CN(C)C1=O [Compound 14] | 7.44
CC[C@@H]1NC(=O)[C@H]([C@H](O)[C@H](C)Cc2nc3cc(C(=O)NC(CCC(=O)O)C(=O)NC(CCC(=O)O)C(=O)O)ccc3[nH]2)N(C)C(=O)[C@H](C(C)C)N(C)C(=O)[C@H](CC(C)C)N(C)C(=O)[C@H](CC(C)C)N(C)C(=O)[C@@H](C)NC(=O)[C@H](C)NC(=O)[C@H](CC(C)C)N(C)C(=O)[C@H](C(C)C)NC(=O)[C@H](CC(C)C)N(C)C(=O)CN(C)C1=O (stereo partly drawn) [Compound 13] | 7.95

====

Assay: in vitro
Conditions: human, Caco-2, pH 7.4
Listed here are compounds together with their documented Papp A→B at 2 h, 5 μM.
Reported Property: Papp A→B at 2 h, 5 μM

Compound | Data Value
CC[C@@H]1NC(=O)[C@H]([C@H](O)[C@H](C)Cc2nc3cc(C(=N)N)ccc3[nH]2)N(C)C(=O)[C@H](C(C)C)N(C)C(=O)[C@H](CC(C)C)N(C)C(=O)[C@H](CC(C)C)N(C)C(=O)[C@@H](C)NC(=O)[C@H](C)NC(=O)[C@H](CC(C)C)N(C)C(=O)[C@H](C(C)C)NC(=O)[C@H](CC(C)C)N(C)C(=O)CN(C)C1=O [Compound 35] | < 0.35 ×10⁻⁶ cm/s
CC[C@@H]1NC(=O)[C@H]([C@H](O)[C@H](C)Cc2nc3cc(S(N)(=O)=O)ccc3[nH]2)N(C)C(=O)[C@H](C(C)C)N(C)C(=O)[C@H](CC(C)C)N(C)C(=O)[C@H](CC(C)C)N(C)C(=O)[C@@H](C)NC(=O)[C@H](C)NC(=O)[C@H](CC(C)C)N(C)C(=O)[C@H](C(C)C)NC(=O)[C@H](CC(C)C)N(C)C(=O)CN(C)C1=O [Compound 34] | < 0.6 ×10⁻⁶ cm/s
CC[C@@H]1NC(=O)[C@H]([C@H](O)[C@H](C)Cc2nc3cccc(C(=O)O)c3[nH]2)N(C)C(=O)[C@H](C(C)C)N(C)C(=O)[C@H](CC(C)C)N(C)C(=O)[C@H](CC(C)C)N(C)C(=O)[C@@H](C)NC(=O)[C@H](C)NC(=O)[C@H](CC(C)C)N(C)C(=O)[C@H](C(C)C)NC(=O)[C@H](CC(C)C)N(C)C(=O)CN(C)C1=O [Compound 28] | < 0.4 ×10⁻⁶ cm/s

====

Molecular target: calcineurin (Homo sapiens, UniProt P62937+P63098+Q08209)
Assay: Inhibition of the phosphatase activity of calcineurin (scintillation-proximity-assay, in presence of Cyp18);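 also: calcineurin dephosphorylation of a ³³P-labelled RII phosphopeptide, captured on streptavidin-coated wells and read by scintillation counting, with uninhibited enzyme activity taken as 100%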
pIC50: −log10 of the molar value.

Smiles Data | Target Desc | pIC50
CC[C@@H]1NC(=O)[C@H]([C@H](O)[C@H](C)Cc2nc3cc(S(=O)(=O)O)cc(F)c3[nH]2)N(C)C(=O)[C@H](C(C)C)N(C)C(=O)[C@H](CC(C)C)N(C)C(=O)[C@H](CC(C)C)N(C)C(=O)[C@@H](C)NC(=O)[C@H](C)NC(=O)[C@H](CC(C)C)N(C)C(=O)[C@H](C(C)C)NC(=O)[C@H](CC(C)C)N(C)C(=O)CN(C)C1=O | calcineurin (Homo sapiens, UniProt P62937+P63098+Q08209) | < 5.00
CC[C@@H]1NC(=O)[C@H]([C@H](O)[C@H](C)Cc2nc3nc(O)nc(O)c3[nH]2)N(C)C(=O)[C@H](C(C)C)N(C)C(=O)[C@H](CC(C)C)N(C)C(=O)[C@H](CC(C)C)N(C)C(=O)[C@@H](C)NC(=O)[C@H](C)NC(=O)[C@H](CC(C)C)N(C)C(=O)[C@H](C(C)C)NC(=O)[C@H](CC(C)C)N(C)C(=O)CN(C)C1=O | calcineurin (Homo sapiens, UniProt P62937+P63098+Q08209) | < 5.00
CC[C@@H]1NC(=O)[C@H]([C@H](O)[C@H](C)Cc2nc3cc(C(=O)NCCC(=O)NCCC(=O)NCCC(=O)NCCC(=O)NCCC(=O)NCCC(=O)O)ccc3[nH]2)N(C)C(=O)[C@H](C(C)C)N(C)C(=O)[C@H](CC(C)C)N(C)C(=O)[C@H](CC(C)C)N(C)C(=O)[C@@H](C)NC(=O)[C@H](C)NC(=O)[C@H](CC(C)C)N(C)C(=O)[C@H](C(C)C)NC(=O)[C@H](CC(C)C)N(C)C(=O)CN(C)C1=O | calcineurin (Homo sapiens, UniProt P62937+P63098+Q08209) | < 5.00
